Assay info: amyloid nucleation score (Sup35N fusion, yeast selection) (log enrichment); library NNK1; higher = more nucleation; inactive = no reads after selection;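 note: zero at mode of non-aggregating sequences after 7 days selection at 30°C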
Quantity kind: amyloid nucleation score
// return just the number, without any unit appended

Dear colleague, I am looking for the recorded amyloid nucleation score of the following substance: AFIDDRAVTCCYQTVLLCER -0.341

Dear colleague, I am looking for the recorded amyloid nucleation score of the following substance: KVISFYS 3.21

Dear colleague, I am looking for the recorded amyloid nucleation score of the following substance: ISHSIAVRNNLLLFGPCQNR 2.12

Dear colleague, I am looking for the recorded amyloid nucleation score of the following substance: HCLSFMIFESNLIIFMNRIR 0.222

Dear colleague, I am looking for the recorded amyloid nucleation score of the following substance: PFLAKVLCNVWNI 6.8

Dear colleague, I am looking for the recorded amyloid nucleation score of the following substance: EFKTDPDYT 0.2

Dear colleague, I am looking for the recorded amyloid nucleation score of the following substance: HVLHNWSDHDRN 1.23

Dear colleague, I am looking for the recorded amyloid nucleation score of the following substance: MVWSQVQLRIGVMVM -0.562

Dear colleague, I am looking for the recorded amyloid nucleation score of the following substance: RLSVVDELLCVLILGFRCYT 0.372

Dear colleague, I am looking for the recorded amyloid nucleation score of the following substance: MVKRCVDNFRKWKSVDSSYR 0.671

Dear colleague, I am looking for the recorded amyloid nucleation score of the following substance: ELSGGA 3.75

Dear colleague, I am looking for the recorded amyloid nucleation score of the following substance: SGINLLFVFS 2.95

Dear colleague, I am looking for the recorded amyloid nucleation score of the following substance: ISCGCMRVLTRDNLFLKFRF 0.12

Dear colleague, I am looking for the recorded amyloid nucleation score of the following substance: ISLCCTSTYLTVSYGTDRS 6.49

Dear colleague, I am looking for the recorded amyloid nucleation score of the following substance: RCSNLGFKFWR -0.332

Dear colleague, I am looking for the recorded amyloid nucleation score of the following substance: FRNGDGVQPWLTWHAV 1.28

Dear colleague, I am looking for the recorded amyloid nucleation score of the following substance: DKEMECIYEYAL 0.523

Dear colleague, I am looking for the recorded amyloid nucleation score of the following substance: KTWRHSFLYFLTGIESRKGA 0.094

Dear colleague, I am looking for the recorded amyloid nucleation score of the following substance: LSHWHGCCKSHRYIQF 0.244

Dear colleague, I am looking for the recorded amyloid nucleation score of the following substance: YLIKCTTIAGRTGYSVTMRD -0.341

Dear colleague, I am looking for the recorded amyloid nucleation score of the following substance: RYDTNMFFSCCT 5.59

Dear colleague, I am looking for the recorded amyloid nucleation score of the following substance: NSDNSGWWRLLYIVESGISS 0.019

Dear colleague, I am looking for the recorded amyloid nucleation score of the following substance: MWLQHYWTHQAY 0.59

Dear colleague, I am looking for the recorded amyloid nucleation score of the following substance: WVLPEAHVYGRWVT 1.06

Dear colleague, I am looking for the recorded amyloid nucleation score of the following substance: TFLIFDLN 4.56

Dear colleague, I am looking for the recorded amyloid nucleation score of the following substance: CQQVLWS 0.039

Dear colleague, I am looking for the recorded amyloid nucleation score of the following substance: NHIDGVIGY 0.083

Dear colleague, I am looking for the recorded amyloid nucleation score of the following substance: RNFLNAYW -0.307

Dear colleague, I am looking for the recorded amyloid nucleation score of the following substance: NFLMSKTGLTPHR 0.07

Dear colleague, I am looking for the recorded amyloid nucleation score of the following substance: TNDEGPVRLNFNISR -0.389

Dear colleague, I am looking for the recorded amyloid nucleation score of the following substance: LQGSVIYLNIKSLGEGVWLF 3.44

Dear colleague, I am looking for the recorded amyloid nucleation score of the following substance: PYGIGIFNYLWATGMNLSQA -0.071

Dear colleague, I am looking for the recorded amyloid nucleation score of the following substance: RMYIHMYS 1.32

Dear colleague, I am looking for the recorded amyloid nucleation score of the following substance: LFRGFWSERSTVSMLFRSRR -0.124

Dear colleague, I am looking for the recorded amyloid nucleation score of the following substance: EVASGVCTRIRLYSRCEWKG 2.84

Dear colleague, I am looking for the recorded amyloid nucleation score of the following substance: WSHSILCIQSRSRIYPTHWL 0.495

Data provenance is the supplement of paper PMC12042874.
